Each entry below lists one item and its recorded Potency value.
assay: Cellular viability qHTS for adrenocortical cancer (ACC) cell line SW-13 (AID 1963989); settings: SW-13 ACC cells viability, CellTiter-Glo, 48 h; further: potency means the concentration at half of the fitted maximal effect; nearly all actives have a fitted effect of over 65% in size
Records with an inconclusive call do not appear. Activity calls are given as the source filed them. The call rests on the fitted dose curve; in most records, active means well fitted cell-killing curve with a large enough effect; inconclusive means small, poorly fitted or top-dose-only effect; inactive means flat fitted curve, though single readings scatter.

Nc1nc(N)c2nc(-c3cccc(Cl)c3)c(N)nc2n1	1.26 µM (active)
CO[C@@H](C)Cn1c(=O)n(C)c2cnc3ccc(-c4cncc(C(C)(C)O)c4)cc3c21	3.55 µM (active)
FC(F)(F)c1ccc(CNc2ccc(Cc3c[nH]c4ncccc34)cn2)cc1	10 µM (active)
c1ccc2c(-c3cnn4cc(-c5ccc(N6CCNCC6)cc5)cnc34)ccnc2c1	3.98 µM (active)
CN(C)c1ccc(C(=O)NCCCCCCC(=O)NO)cc1	4.47 µM (active)

Query string: Look at this compound and give its reported Potency. CC(=NNC(=O)c1cccc(S(=O)(=O)N2CCOCC2)c1)c1cc(Cl)ccc1O
Result string: 3.55 µM (active)

Query string: Now the compound COc1ncc(-c2ccc3nccc(-c4ccnnc4)c3c2)cc1NS(=O)(=O)c1ccc(F)cc1F
Result string: 1.12 µM (active)

Query string: Then COc1cc(N2CCN(C(C)=O)CC2)ccc1Nc1ncc(Cl)c(Nc2ccc(N3CCN(C(C)=O)CC3)cc2OC)n1 ?
Result string: 25.1 µM (active)
